test: inhibitors of TNFa-induced NFkB p65 translocation, primary screen, imaging, HUVEC, MLSMR starter and 10KST1 sets (AID 438); settings: HUVEC TNFa-induced p65 nuclear translocation; measured here: nuclei count (cytotoxicity indicator), at 2.08 µM;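 further: compound added about 3h40 before a 20 min TNFalpha stimulation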
Recorded Metric: cell count
Note: the reply should be a number with no unit written.

Illustrative cases are given below, each with its answer.
1. NC(N)=NC(N)=NCCc1ccccc1    589
2. Cc1c(C(=O)O)c(=S)sn1CCOc1ccccc1    646
3. COC(=O)CSC1=C(C#N)C(=O)NC2(CCCCC2)S1    573
4. COCCCC/C(=N\OCCN)c1ccc(C(F)(F)F)cc1    514
5. COc1ccc(N2CCN(c3nc4c(c(=O)[nH]c(=O)n4C)n3CCCc3ccccc3)CC2)cc1    636
6. Cn1c(=O)c2c(nc(NCC(O)CO)n2CCc2ccccc2)n(C)c1=O (stereo unspecified)    693
7. CN1C(=O)CC(N2CCN(c3ccc(Cl)c(Cl)c3)CC2)C1=O (stereo unspecified)    379
8. COc1ccc(OC)c(C2/C(=C(\O)c3ccc4c(c3)OCCO4)C(=O)C(=O)N2CCCN(C)C)c1 (stereo unspecified)    490

Fill blank: measured cell count of the molecule "C=CCNc1nc(-c2cccc(OC)c2O)nc2ccccc12" is ____.
347

I would be grateful if you could share the reported cell count for COC(=O)CC1=C(C(=O)OC)C(c2ccncc2)C(C#N)=C(N)O1 (stereo unspecified) .
492

What value of measured cell count is listed for Cc1cc(/C(O)=C2\C(=O)C(=O)N(CCN(C)C)C2c2ccncc2)ccc1OCc1ccccc1 (stereo unspecified) ?
664

* * *

test: inhibitors of E-selectin induction by TNFa, primary screen, imaging, HUVEC, immunofluorescence, MLSMR starter and 10KST1 sets (AID 487); details: HUVEC TNFalpha-induced E-selectin immunofluorescence imaging, at 2 µM; stronger effect = higher value;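 further: signal is fraction of cell area covered by stained E-selectin grains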
Reported inhibition is given for each of the following compounds.
The reply should contain only the number, in %.

The cases that follow already have their inhibition on record.
1. O=c1c2c3c(sc2n2cnnc2n1Cc1ccccc1)CN(Cc1ccccc1)CC3    66.2
2. CCOC(=O)c1ccc(CC2S/C(=C(\C#N)C(C)=O)NC2=O)cc1 (stereo unspecified)    -87.6
3. COc1cccc(-c2nnc3sc(-c4ccc(C)cc4)nn23)c1    -24.2

For the compound "CC(C)(C)OC(=O)NCCC(=O)Oc1ccc2ccc(=O)oc2c1" , what inhibition is on record?
-209

Reported inhibition for CCCSC1=C(C#N)C(c2ccc(OC)cc2)C2=C(CC(C)(C)CC2=O)N1 (stereo unspecified) : what is it?
-74.2

Value lookup for inhibition; key = "COc1ccc(CNC(=O)c2c(C)cc(=O)oc2C)cc1OC"
-121

* * *

assay: inhibitors of Sendai virus-induced IRF3 signaling, primary screen, TLR/RLR signaling modifier project, cell-based, Sendai virus stimulus, luciferase, 10K MLSCN set (AID 602276); details: HEK293 RL24 IRF3 luciferase reporter, at 10 µM, stronger effect = higher value;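 further: firefly luciferase from ISG56 promoter only with Renilla not read in this screen; 0% = Sendai virus plus DMSO and 100% = medium plus DMSO without virus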
# inhibition >= 10% gives y, anything below gives n

Consider the following illustrative entries.
1. Cc1nn(C)cc1C1C2=C(CC(C)(C)CC2=O)OC2=C1C(=O)CC(C)(C)C2    y
2. COCCCC/C(=N\OCCN)c1ccc(C(F)(F)F)cc1    n

Decide: inhibition of CN(C)c1ccc(C=NCC2(O)CCOC(C)(C)C2)cc1 (stereo unspecified) >= 10%?
y

Hello, I need to know if CC(C(=O)O)c1ccc(-c2ccccc2)c(F)c1 (stereo unspecified) has measured inhibition not below 10%. Thanks!
y

Assess whether reported inhibition for "O=C(NCc1ccco1)c1cnn2c(C(F)(F)F)cc(-c3ccco3)nc12" sits at 10% or higher.
y
